Cited source: patent US9440952B2

// values below are reported pIC50
TEST SYSTEM: LRRK2(G2019S mutation, GST-LRRK2(amino acids 970-2527)) (Homo sapiens, UniProt Q5S007, G2019S)
Construct: GST-LRRK2(amino acids 970-2527); GST (N); purchased Life Technologies Corporation
Sequence (Q5S007 970-2527 G2019S): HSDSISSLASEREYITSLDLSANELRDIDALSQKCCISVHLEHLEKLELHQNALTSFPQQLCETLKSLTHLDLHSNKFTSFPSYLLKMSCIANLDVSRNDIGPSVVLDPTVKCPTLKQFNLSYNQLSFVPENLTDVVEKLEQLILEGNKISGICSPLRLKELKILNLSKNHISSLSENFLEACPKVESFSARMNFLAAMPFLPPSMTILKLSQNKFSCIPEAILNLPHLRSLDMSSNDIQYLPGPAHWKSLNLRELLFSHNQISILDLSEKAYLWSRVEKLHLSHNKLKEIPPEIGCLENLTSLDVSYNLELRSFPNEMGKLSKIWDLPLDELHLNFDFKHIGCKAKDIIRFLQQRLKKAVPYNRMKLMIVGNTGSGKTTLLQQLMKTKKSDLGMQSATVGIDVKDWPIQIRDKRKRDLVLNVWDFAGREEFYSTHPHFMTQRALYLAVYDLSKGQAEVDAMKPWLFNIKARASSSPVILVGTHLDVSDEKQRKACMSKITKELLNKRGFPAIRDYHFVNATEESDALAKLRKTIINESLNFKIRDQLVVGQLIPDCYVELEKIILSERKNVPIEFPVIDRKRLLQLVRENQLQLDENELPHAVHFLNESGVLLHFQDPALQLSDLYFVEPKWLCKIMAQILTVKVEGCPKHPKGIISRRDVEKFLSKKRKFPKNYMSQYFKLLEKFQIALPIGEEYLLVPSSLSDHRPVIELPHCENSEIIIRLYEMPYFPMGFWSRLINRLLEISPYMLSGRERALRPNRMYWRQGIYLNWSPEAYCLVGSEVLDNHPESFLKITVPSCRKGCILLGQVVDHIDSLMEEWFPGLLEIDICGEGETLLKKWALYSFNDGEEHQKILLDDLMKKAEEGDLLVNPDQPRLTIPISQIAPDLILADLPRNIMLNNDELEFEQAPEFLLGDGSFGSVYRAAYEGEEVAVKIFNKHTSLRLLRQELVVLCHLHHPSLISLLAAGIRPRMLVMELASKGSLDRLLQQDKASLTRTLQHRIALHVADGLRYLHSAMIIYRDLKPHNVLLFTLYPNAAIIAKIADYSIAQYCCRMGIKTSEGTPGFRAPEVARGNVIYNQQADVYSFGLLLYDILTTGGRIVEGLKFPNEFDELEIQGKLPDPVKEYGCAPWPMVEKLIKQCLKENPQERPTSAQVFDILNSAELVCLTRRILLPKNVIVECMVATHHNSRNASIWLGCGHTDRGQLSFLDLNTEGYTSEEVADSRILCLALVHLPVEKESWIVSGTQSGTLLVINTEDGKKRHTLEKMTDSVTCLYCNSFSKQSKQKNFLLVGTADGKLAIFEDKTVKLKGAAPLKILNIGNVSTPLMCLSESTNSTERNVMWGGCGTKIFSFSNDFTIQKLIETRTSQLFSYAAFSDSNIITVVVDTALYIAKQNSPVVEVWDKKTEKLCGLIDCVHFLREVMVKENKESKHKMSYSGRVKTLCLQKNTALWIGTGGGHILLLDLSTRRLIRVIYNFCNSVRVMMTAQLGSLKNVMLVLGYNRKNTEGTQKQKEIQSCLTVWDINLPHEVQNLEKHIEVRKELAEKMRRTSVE
ASSAY NOTES: LRRK2 Km ATP LanthaScreen Assay
Type: biochemical
EXPERIMENTAL SETUP: Km ATP LanthaScreen; mean IC50 of several tests; read-out: LRRK2 IC50
Experimental: Unless otherwise noted, all LRRK2 IC50 data presented in tables refers to the LRRK2 Km ATP LanthaScreen™ Assay that is described in the Biological Assay section. The data presented for the 5 mM and Km ATP LanthaScreen™ Assay represents mean IC50 values based on several test results and may have reasonable. deviations depending on the specific conditions and reagents used. […] Results are analysed using Assay Data Analyzer.
Remember the convention: pIC50 equals -log10 of concentration in molar.

[[record]]
compound = "CC(C)Oc1ccc2[nH]nc(-c3ccnc(N4CCN(S(C)(=O)=O)C(C)C4)c3)c2c1 (stereo not shown) [Example 385]"
reported_result = 8.66

[[record]]
compound = "CCOc1ccc2[nH]nc(-c3ccnc(N4CCS(=O)(=O)CC4)c3)c2c1 [Example 298]"
reported_result = 7.29

[[record]]
compound = "CS(=O)(=O)c1cccc(Nc2ccc3[nH]nc(-c4ccnc(N5CCOCC5)c4)c3c2)c1 [Example 108]"
reported_result = 8.03


In the following, a different compound is considered.
For record c1ccc2c(-c3ccnc(N4CCOCC4)c3)n[nH]c2c1 [Example 1] the listed pIC50 is 7.80
